Biological target: UniProt:O43614
Sequence (O43614 whole entry): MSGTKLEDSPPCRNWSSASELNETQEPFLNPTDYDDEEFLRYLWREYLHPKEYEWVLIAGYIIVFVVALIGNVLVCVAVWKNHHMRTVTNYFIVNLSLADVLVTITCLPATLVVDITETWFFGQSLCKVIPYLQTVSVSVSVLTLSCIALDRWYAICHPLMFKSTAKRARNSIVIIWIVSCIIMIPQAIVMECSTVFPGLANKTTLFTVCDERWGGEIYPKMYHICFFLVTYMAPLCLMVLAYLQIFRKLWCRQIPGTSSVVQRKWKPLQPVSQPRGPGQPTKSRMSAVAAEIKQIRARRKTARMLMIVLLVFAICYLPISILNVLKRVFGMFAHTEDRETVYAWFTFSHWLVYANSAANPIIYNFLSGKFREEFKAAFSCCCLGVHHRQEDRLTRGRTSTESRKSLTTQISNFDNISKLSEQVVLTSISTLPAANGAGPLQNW
Assay: Human orexin 2 receptor Ca2+ mobilization assay (FLIPR, PFSK cells, orexin B 100 nM)
Assay type: cell-based
Details: modified Cheng-Prusoff correction, read-out: OR 2 Kb
Label yes (1) when Kb >= 9 nM; otherwise no (0).

# compound, target.entity, label.value
rows = [
    ("Cc1nc(N2CC3CN(C(=O)c4cccc(F)c4-n4nccn4)CC3C2)nc(C)c1C (stereo not shown)", "UniProt:O43614", "no (0)"),
    ("Cc1cc(C)nc(N2CC3CN(C(=O)c4c(C)ccc5ccccc45)CC3C2)n1 (stereo not shown)", "UniProt:O43614", "yes (1)"),
    ("Cc1cc(C)nc(N2CC3CN(C(=O)c4c(F)cccc4-c4ncccn4)CC3C2)n1 (stereo not shown)", "UniProt:O43614", "no (0)"),
    ("Cc1noc(-c2ccccc2C(=O)N2CC3CN(c4nc(C)c5c(n4)CCC5)CC3C2)n1 (stereo not shown)", "UniProt:O43614", "no (0)"),
    ("CCOc1ccc2ccccc2c1C(=O)N1CC2CN(c3nccc(-c4ccccc4)n3)CC2C1 (stereo not shown)", "UniProt:O43614", "yes (1)"),
    ("CCOc1ccc2ccccc2c1C(=O)N1CC2CN(c3nccc(OC)n3)CC2C1 (stereo not shown)", "UniProt:O43614", "yes (1)"),
    ("Cc1cc(C)nc(N2CC3CN(C(=O)c4ccc(F)c5ccccc45)CC3C2)n1 (stereo not shown)", "UniProt:O43614", "yes (1)"),
    ("COc1ccc(C(=O)N2CC3CN(c4nc5ccc(Cl)cc5s4)CC3C2)c(OC)c1 (stereo not shown)", "UniProt:O43614", "yes (1)"),
    ("Cc1cc(N2CC3CN(C(=O)c4cc(F)ccc4-c4ncccn4)CC3C2)nc(C(F)(F)F)n1 (stereo not shown)", "UniProt:O43614", "yes (1)"),
    ("COc1cc(N2CC3CN(C(=O)c4cc(F)ccc4-n4nccn4)CC3C2)nc(N(C)C)n1 (stereo not shown)", "UniProt:O43614", "yes (1)"),
    ("COc1ccc(C(=O)N2CC3CN(c4ncc(F)c(C)n4)CC3C2)c(-n2nccn2)c1 (stereo not shown)", "UniProt:O43614", "no (0)"),
    ("CCc1c(C)nc(N2CC3CN(C(=O)c4ncccc4-n4nccn4)CC3C2)nc1C (stereo not shown)", "UniProt:O43614", "no (0)"),
    ("Cc1noc(-c2ccccc2C(=O)N2CC3CN(c4nc(C)c(C)c(C)n4)CC3C2)n1 (stereo not shown)", "UniProt:O43614", "no (0)"),
    ("O=C(c1cccc(F)c1-n1nccn1)N1CC2CN(c3ncc4cc(F)ccc4n3)CC2C1 (stereo not shown)", "UniProt:O43614", "yes (1)"),
    ("CN(C)c1cc(N2CC3CN(C(=O)c4c(F)cccc4-n4nccn4)CC3C2)nc(C(F)(F)F)n1 (stereo not shown)", "UniProt:O43614", "yes (1)"),
    ("COc1cc(OC)nc(N2CC3CN(C(=O)c4ccc(F)cc4-n4nccn4)CC3C2)n1 (stereo not shown)", "UniProt:O43614", "yes (1)"),
    ("Cc1cc(N2CC3CN(C(=O)c4ccccc4-n4nccn4)CC3C2)nc(N(C)C)n1 (stereo not shown)", "UniProt:O43614", "yes (1)"),
    ("CCOc1ccc2ccccc2c1C(=O)N1CC2CN(c3nc(C)cc(C)n3)CC2C1 (stereo not shown)", "UniProt:O43614", "yes (1)"),
    ("CN(C)c1nc(N2CC3CN(C(=O)c4ccc(F)cc4-n4nccn4)CC3C2)cc(C(F)(F)F)n1 (stereo not shown)", "UniProt:O43614", "yes (1)"),
    ("CN(C)c1nc(N2CC3CN(C(=O)c4c(F)cccc4-n4nccn4)CC3C2)cc(C(F)(F)F)n1 (stereo not shown)", "UniProt:O43614", "yes (1)"),
]

Source of measurements: patent US9586962B2
